Measured apparent KD of K4 kissing-loop reporter, listed per entry.
Test system: K4 kissing-loop RNA reporter;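 further: bound reporter read as fluorescence of individual clusters on recovered sequencing chips by microscopy, with normalized cluster intensities fitted with a binding model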
procedure-summary: apparent KD of K4 kissing-loop reporter; higher = weaker reporter binding
run-parameters: Eterna round: R107; input ligand: FMN 200 uM
Value and unit, in that order.

Known results for sequences:
item-sequence	metric-name	result
GUGUAAGUGAUGUUUGCACACACGUCGGAUACCAGAGACUUUAGCCUCCCUUGGCAGCCGCCGGCCAUAAGAGCAAGUCGAUUUA [theeternabot_sameState_KL_Theo_A_20]	apparent KD of K4 kissing-loop reporter	197 nM
UCCUAGGCUCGAAAGAGCCUAGGUAAGACUCAGGAUAUCUGGAAACAGAGAAGGGAGCUACUAGUGAUGUUAGGAAUUCCCUAAG	apparent KD of K4 kissing-loop reporter	126 nM
CCUAUCUCAUACGAUACCAGUCCGAGUGAUGUUCGAACAGGUUUUAGUUUGCCAUAUAAUGACCCUUGGCAGCGUAUGGGAUAGG [Ex Theophylline B K4 13]	apparent KD of K4 kissing-loop reporter	167 nM
CGUCACACUUGAUGGUUAUCCAAUGAUGAUACCAGCCGUCGAGAUGGCCCUUGGCAGCAUGUGGUACAGUGAUGUUGUACAUUGG [theeternabot_sameState_KL_Theo_A_30]	apparent KD of K4 kissing-loop reporter	392 nM
AUUUAUCCGUCCAGCUGAGUGAUGUUUAGCCGAGGACCGGUACGGCCGCCACUCGUAAGAACCUGUUACGUUGGCUCCUGUGGUG [theeternabot_exclusion_KL_Trp_A_49]	apparent KD of K4 kissing-loop reporter	244 nM
AUUAAUUUCAGAGGAUAUGCUUAAUUGAUUUAUUAUUAUCUAUUAUGCAGUGAUGUUGCAUAUUUUGCAGAAGGCUGAUUUAUAA [JR_SSFMNB_Sub018]	apparent KD of K4 kissing-loop reporter	123 nM

Read the next record carefully.
Qu. State the measured apparent KD of K4 kissing-loop reporter (K4 kissing-loop RNA reporter) of UAAUAAAUUCCAGCGAUAUCGCUCUUCGAAGGAGCGGACGAAAGUCCAGGUAGGUCGCGAAGAGUGAUGUUCUUUGCGGCGCUGG [Omei KL Arginine A Exc A v4]
Ans. 207 nM

The measured values listed here are drawn from the supplement of paper PMC9170038.
